// data source = patent US10011615B2

target: human A2a receptor (Homo sapiens); experiment: A2a receptor competition binding assay using Scintillation Proximity technology; conditions: membranes from HEK293 cells expressing human A2a receptor; 0.5 nM tritiated radioligand; SPA beads; 1 h room temperature
Sequence (P29274 whole entry): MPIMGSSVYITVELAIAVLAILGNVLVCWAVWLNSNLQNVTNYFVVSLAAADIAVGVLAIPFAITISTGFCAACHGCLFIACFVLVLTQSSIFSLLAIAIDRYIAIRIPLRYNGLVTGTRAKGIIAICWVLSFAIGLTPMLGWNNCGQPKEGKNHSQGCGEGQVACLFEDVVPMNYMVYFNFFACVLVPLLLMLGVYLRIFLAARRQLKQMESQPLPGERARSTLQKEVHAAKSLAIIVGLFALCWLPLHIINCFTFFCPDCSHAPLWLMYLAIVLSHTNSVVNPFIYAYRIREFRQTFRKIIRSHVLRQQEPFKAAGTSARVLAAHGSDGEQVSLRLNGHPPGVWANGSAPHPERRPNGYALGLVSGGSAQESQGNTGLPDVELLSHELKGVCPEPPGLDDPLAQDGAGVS
pEC50: −log10 of the molar value.
Is pEC50 at least 8? Then True. If not, False.

I'd appreciate it if you could say whether COc1cccc2c1nc(N)n1nc(CCN3CCc4scnc4C3)nc21 has pEC50 at least equal to 8.
True

Here is the next compound: COc1cccc2c1nc(N)n1nc(CCN3Cc4nc(-c5ccccc5)[nH]c4C3)nc21
True

Here is the next compound: CCc1nnc2n1CCN(Cc1nc3c4cccc(OC)c4nc(N)n3n1)C2
False

Here is the next compound: COc1cccc2c1nc(N)n1nc(CCN3CCc4sc(C(F)(F)F)nc4C3)nc21
True

Here is the next compound: COc1cc(F)cc2c1nc(N)n1nc(CCN3Cc4cccnc4C3)nc21
False

Here is the next compound: COc1cccc2c1nc(N)n1nc(CN3CCc4ccncc4C3)nc21
False

Here is the next compound: COc1cccc2c1nc(N)n1nc(CCN3Cc4ccc(N5CCC(N6CCOCC6)CC5)nc4C3)nc21
True

Here is the next compound: Nc1nc2cc(F)c(F)cc2c2nc(CCN3Cc4cccnc4C3)nn12
False

Here is the next compound: COc1cccc2c1nc(N)n1nc(CN3CCn4c(nnc4C(=O)NC(C)(C)C)C3)nc21
False

Here is the next compound: COc1cccc2c1nc(N)n1nc(CCN3Cc4[nH]nc(-c5ccccc5)c4C3)nc21
True

Here is the next compound: COc1cccc2c1nc(N)n1nc(CCN3CCc4nc(C(F)(F)F)[nH]c4C3)nc21
True

Here is the next compound: COc1cccc2c1nc(N)n1nc(CN3CCc4cc(F)ccc4C3)nc21
False

Here is the next compound: COc1cccc2c1nc(N)n1nc(CCN3Cc4ccc(F)cc4C3)nc21
True

Here is the next compound: COc1cccc2c1nc(N)n1nc(CN3Cc4ccccc4C(C)(C)C3)nc21
True

Here is the next compound: COc1cccc2c1nc(N)n1nc(CN3CCc4cncnc4C3)nc21
False
